These entries and their values trace back to ChEMBL document CHEMBL2331364.

Species: Capra hircus
Test: Inhibition of goat brain tubulin polymerization at 5 uM incubated for 20 mins prior to GTP addition measured for 30 mins by 90 degree light scattering-based fluorescence spectrophotometric method
Endpoint: inhibition (%)
State just the number; it will be interpreted in %.

CC[C@H](C)[C@@H]([C@@H](CC(=O)NC[C@H]1O[C@H](C(=O)NCCc2ccccc2)[C@@H](OC)[C@@H]1OC)OC)N(C)C(=O)[C@@H](NC(=O)[C@@H](NC)C(C)C)C(C)C | 37
CC[C@H](C)[C@@H]([C@H](CC(=O)NC[C@H]1O[C@H](C(=O)N[C@@H](Cc2ccccc2)c2nccs2)[C@@H](OC)[C@@H]1OC)OC)N(C)C(=O)[C@@H](NC(=O)[C@@H](NC)C(C)C)C(C)C | 10
CC[C@H](C)[C@@H](/C=C/C(=O)NC[C@H]1O[C@@H](C(=O)N[C@@H](Cc2ccccc2)C2=NCCS2)[C@@H](OC)[C@@H]1OC)N(C)C(=O)[C@@H](NC(=O)[C@@H](NC)C(C)C)C(C)C | 19

Q. # inhibition lookup, item `CC[C@H](C)[C@@H](/C=C/C(=O)NC[C@H]1O[C@@H](C(=O)N[C@@H](Cc2ccccc2)C2=NCCS2)[C@@H](OC)[C@@H]1OC)N(C)C(=O)[C@@H](NC(=O)[C@H](C(C)C)N(C)C)C(C)C`
A. 21
